Can you tell me Kd for the items I'm about to list?
Biological target: T1, BMPRII receptor-human-IgG1-Fc fusion protein (human, UniProt Q13873 27-150, limits assumed)
T1 construct: extracellular domain; See note of m11; also called BMPR IIA; BMPRIIA; not shown: human IgG1 Fc
T1 sequence (looked up): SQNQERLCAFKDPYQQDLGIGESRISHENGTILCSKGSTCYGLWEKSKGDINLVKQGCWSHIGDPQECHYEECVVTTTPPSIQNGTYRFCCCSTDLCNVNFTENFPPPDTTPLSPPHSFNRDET
Assay: BLI (Octet), receptor-Fc on anti-human IgG tips
Express it in nM; write the number only.

## Input So what's the measured Kd for this one? designer BMPE (ligand, N-linked glycan at N56 (CHO-produced), Produced in CHO cells) QAKHKQRKRLKSSCKRHPLYVDFSDVGWNDWIVAPPGYHAFYCDGECSFPLNAHMNATNHAIVQTLVHLMNPEYVPKPCCAPTELSAISMLYLDENEKVVLKNYQDMVVEGCGCR
## Output 82

## Input Now the binder wild type BMP2 homodimer (ligand, N-linked glycan at N56 (CHO-produced), also called BMP2WT; WT BMP2) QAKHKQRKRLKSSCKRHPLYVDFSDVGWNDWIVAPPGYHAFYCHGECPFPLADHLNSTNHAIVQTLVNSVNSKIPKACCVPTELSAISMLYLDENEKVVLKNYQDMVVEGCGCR
## Output 62

## Input Now this one: designer BMPG (ligand, Produced in CHO cells; dimer as the other BMPs) QAKHKQRKRLKSSCKRHPLYVDFSDVGWNDWIIAPKGYAAFYCHGECPFPLADHLNSTNHAIVQTLVNSVNSKIPKACCVPTELNAISVLYFDDNSNVILKNYQDMVVEGCGCR
## Output 4

## Input Repeat for the following binder: designer BMP-GER (ligand, also called BMPGE P36R) QAKHKQRKRLKSSCKRHPLYVDFSDVGWNDWIIAPRGYAAFYCDGECSFPLNAHMNATNHAIVQTLVHLMNPEYVPKPCCAPTELNAISVLYFDDNSNVILKNYQDMVVEGCGCR
## Output 3.5
